System: KM12 colon
Assay: NCI tumour cell line growth inhibition, 48 h
quantityMeasured: TGI (µM)
The answer is to be given in µM; state only the numeric part.

Prompt line: Returns the measured TGI for the input molecule. Input: `COCCN(CCNC(=O)c1cccc2c(N)c3cccc(C)c3nc12)CCOC`
Response line: 6.93

Prompt line: Param item = `COc1cc(C(=O)O[C@H](C(=O)NCCCNC(=O)[C@@H](OC(=O)c2cc(OC)cc3c(C)cccc23)[C@]2(C)CO2)[C@]2(C)CO2)c2cccc(C)c2c1` ; retrieve measured TGI.
Response line: 0.607

Prompt line: Consider the molecule `c1cc(-c2ccc(-c3ccc(-c4ccc(-c5ccncc5)o4)cc3)o2)ccn1` and give its measured TGI.
Response line: 32.2

Prompt line: TGI lookup needed for COc1cc2c(c(OC)c1OC)-c1ccc(SC)c(=O)cc1C(CC(=O)Oc1cccc([N+](=O)[O-])c1)C2 (configuration not stated) , thanks.
Response line: 5.4

###

Test system: SF-268 CNS
Assay: NCI tumour cell line growth inhibition, 48 h
quantityMeasured: TGI

Prompt line: Tell me the measured TGI of `COc1cc(-c2nc3ccc(N4CCN(C)CC4)cc3[nH]2)c(OC)c2[nH]c(COC(C)=O)nc12` , please.
Response line: > 100 µM

Prompt line: # TGI lookup, item COc1cc2c(c(OC)c1OC)-c1ccc(SC)c(=O)cc1C(CC(=O)Oc1cccc([N+](=O)[O-])c1)C2 (stereo not given)
Response line: > 27.2 µM

Prompt line: Which TGI reading was recorded for the compound `S=C(NCCc1ccccn1)N/N=C/c1ccccn1` ?
Response line: > 100 µM

Prompt line: Please report the recorded TGI for `O=P1(c2ccccc2)c2ccccc2-c2ccccc21` .
Response line: > 100 µM

Prompt line: I am curious: what TGI value has been reported for `COC(=O)c1ccccc1N(C(=O)c1ccccc1)c1ccccc1C` ?
Response line: > 100 µM

Prompt line: Would you mind telling me what TGI value was observed for `O=C1C(=O)N(c2ccc(Cl)cc2)C(=O)C(=O)C1c1nc2ccccc2o1` ?
Response line: > 100 µM

Prompt line: Requested field: TGI. Item: `COCCN(CCNC(=O)c1cccc2c(N)c3cccc(C)c3nc12)CCOC`
Response line: 2.3 µM

Prompt line: Any idea what TGI was measured for `O=c1oc2ccc(I)cc2c(=O)n1-c1ccc(F)cc1F` ?
Response line: 27.1 µM

Prompt line: Query: TGI; subject: OCC1COc2cc(Cl)c(Cl)cc2O1 (stereo not given)
Response line: > 10 µM

Prompt line: Consider the compound shown here: `O=C(Nc1cccc2c1C(=O)c1c(NC(=O)c3ccccc3)ccc(Nc3cccc4c3C(=O)c3ccccc3C4=O)c1C2=O)c1ccccc1` What is its recorded TGI?
Response line: > 100 µM

###

So I've got a bunch of molecules here, and I need their log10 of TGI values.
System: HOP-92 NSCLC
Test: NCI tumour cell line growth inhibition, 48 h
In plain terms, each number is the log10 of measured TGI in µM.

Prompt line: For the molecule `CCCCCCCCCCCCCCCC1=NCCN1` , what log10 of TGI is on record?
Response line: 0.68

Prompt line: Field request: log10 of TGI | item: `Cc1c(-c2ccc(C3CCCCC3)cc2)nc2ccc(F)cc2c1C(=O)O`
Response line: 1.99

Prompt line: Return reported log10 of TGI; argument: CC(=O)OC(CC1(C)C(C)CCC23COC(=O)C2=CCCC31)c1ccoc1 (stereo not given)
Response line: 1.72

Prompt line: Need log10 of TGI of `COc1ccc2c(c1)c(-c1nc(-c3c[nH]c4ncccc34)cs1)cn2CCCN1CCCCC1` , thanks.
Response line: 0.49

Prompt line: Can you look up the measured log10 of TGI of O=C1C(=C(C(F)(F)Cl)C(F)(F)Cl)C2CCC1C2 (stereo not given) for me?
Response line: 0.81

Prompt line: Form field: reported log10 of TGI of `COc1cc2c3cc1Oc1c(OC)c(OC)cc4c1C(=NCC4)Cc1ccc(cc1)Oc1cc(ccc1O)C[C@H]3N(C)CC2`
Response line: 1.46

Prompt line: Which log10 of TGI value is on record for `C=C(CN1CCN(c2ccc(C(F)(F)F)cc2)CC1)c1ccc(C(=O)Nc2ccccc2N)cc1` ?
Response line: 1.37

Prompt line: Quick one: log10 of TGI of COc1cc2c3cc1Oc1c(O)c(OC)cc4c1C(Cc1ccc(O)c(c1)Oc1ccc(cc1)CC3N(C)CC2)N(C)CC4 (stereo not given) ?
Response line: 1.39

###

Test system: NCI-H226 lung
Assay: NCI tumour cell line growth inhibition, 48 h
quantityMeasured: TGI

Prompt line: Which TGI is reported for this compound? `CN(C)CCCN(CCC1CCCCC1)CCC1CCCCC1`
Response line: 26.7 µM

Prompt line: What measured TGI goes with `COc1ccc(C=Nc2c(C(=O)Nc3cccc(Cl)c3C)sc3nc(C)c(C(=O)/C=C/c4ccc(OC)cc4)cc23)cc1` ?
Response line: 11.7 µM

Prompt line: Item under review: `COC(=O)c1ccc2c(c1)C(=O)c1c-2n(CCCCl)c(=O)c2cc([N+](=O)[O-])ccc12` . Reported TGI?
Response line: > 100 µM

Prompt line: Returns the measured TGI for the input compound. Input: `COc1ccc(C2=NN(c3ccccc3)C[N+](c3ccc(C)cc3)=N2)cc1`
Response line: > 100 µM

Prompt line: Look up TGI: `C=C(CN1CCN(c2ccc(C(F)(F)F)cc2)CC1)c1ccc(C(=O)Nc2ccccc2N)cc1`
Response line: > 60.5 µM

Prompt line: Record request: TGI value, item `CCCc1cn2c(/C=N/N=C(N)N)c(-c3cccc([N+](=O)[O-])c3)nc2s1`
Response line: 3.28 µM

Prompt line: Record request: TGI value, item N#CC(N=Nc1ccccc1C(=O)O)C(N)=O (centres undefined)
Response line: > 100 µM

Prompt line: Give its TGI value. Item: `CC1(C)S[C@@H]2[C@H](N3C(=O)c4ccccc4C3=O)CN2[C@H]1NC(=O)N[C@@H]1N2C[C@@H](N3C(=O)c4ccccc4C3=O)[C@H]2SC1(C)C`
Response line: > 100 µM

Prompt line: // TGI lookup, key: N#CC1(C#N)NC(c2ccccc2)C(C#N)(C#N)NC1c1ccccc1 (centres undefined)
Response line: > 100 µM

###

System: UACC-257 melanoma
Test: NCI tumour cell line growth inhibition, 48 h
Exercise: for every item that follows, state its recorded TGI.
State the answer as a number, implicitly in µM.

Prompt line: Which value of TGI has been reported for `COc1cc2c3cc1Oc1c(OC)c(OC)cc4c1C(=NCC4)Cc1ccc(cc1)Oc1cc(ccc1O)C[C@H]3N(C)CC2` in the records?
Response line: 29.6

Prompt line: What does the record list as TGI for `O=C(Cc1ccccc1F)NC1=C(Cl)C(=O)c2ccccc2C1=O` ?
Response line: 4.32

Prompt line: Could you share which TGI value was measured for `Cc1c[n+]2c3ccccc3c3ccccc3c2s1` ?
Response line: 18.3

Prompt line: Look up TGI for this compound: `CC/C=C\C[C@H](F)C/C=C1/C(=O)C=C[C@@H]1C/C=C\CCCC(=O)OC`
Response line: 10.1

Prompt line: // query TGI value for entry `Oc1ccc(O)c(-c2cn3c(n2)SCC3)c1`
Response line: 55.8

Prompt line: Item under review: `O=C1C(Cl)=C(Nc2ccc(Nc3ccccc3)c(NC3=C(Cl)C(=O)c4ccccc4C3=O)c2)C(=O)c2ccccc21` . Reported TGI?
Response line: 33.7

Prompt line: Fill in: TGI of COc1cc2c3cc1Oc1c(O)c(OC)cc4c1C(Cc1ccc(O)c(c1)Oc1ccc(cc1)CC3N(C)CC2)N(C)CC4 (stereo not given) is ___
Response line: 33.4

Prompt line: // returns reported TGI for input `CC(=O)c1[nH]c(NC(C)C)c(C(=S)Nc2ccccc2)c1N`
Response line: 65.8

Prompt line: Entry `COc1ccc([N+](=O)[O-])c2c(NCCCN(C)C)ccnc12` : reported TGI = ?
Response line: 12

Prompt line: Any idea what TGI was measured for `CCCc1n(Cc2ccc3ccccc3c2)cc[n+]1Cc1ccc2ccccc2c1` ?
Response line: 1.76

Prompt line: For the compound shown here, `COc1cccc(/C=C/C(=O)c2ccc(SC)cc2)c1OC` , give the reported TGI.
Response line: 29.3

Prompt line: # lookup: TGI of `O=C(CCl)NCCNc1nccc(Nc2ccc(S(=O)(=O)Nc3ccccn3)cc2)n1`
Response line: 14.4

Prompt line: Looking for the measured TGI of BrC(Br)=C1C(=C(Br)Br)C(Br)C1Br (stereo not given) , can you help?
Response line: 5.3

Prompt line: Data request, read-out TGI, for `CC1=C2CC(C)(C)/C=C\C(=O)/C(C)=C\C3=C[C@H](C)C[C@]3(O2)C1=O`
Response line: 4.41

Prompt line: I'd like to know its TGI. The compound in question is `COC(=O)/C=C\C(C#N)(C#N)N=Cc1cccc(OC)c1`
Response line: 29.8

Prompt line: Would you mind telling me what TGI value was observed for COc1nc2cccc(C(O)c3ccccc3)c2nc1-c1ccccc1 (stereo not given) ?
Response line: 26.9

Prompt line: # query: TGI of entry `Oc1ccc(Nc2ccc3ccccc3c2)cc1`
Response line: 34.3

Prompt line: // returns reported TGI for input `Cc1cccc(-n2c(N)c(-c3nc4ccccc4[nH]3)sc2=S)c1`
Response line: 67.1

Source of measurements: PubChem BioAssay (NCI)
